- protocolSummary: NCI Yeast Anticancer Drug Screen. Data for the rad50 strain (AID 155)
- statedConditions: S. cerevisiae rad50 strain growth inhibition; at 11.0 µM
Compounds without any hit were thinned out: in the full panel of roughly 79,000, 15% have a hit. Activity calls are given as the source filed them. Cut-off read from the data, not from the text of the source: active = growth inhibition above about 70%; inactive = the rest.
Possible outcomes: active, inactive

recordSmiles: O=[N+]([O-])c1cccc2nc3ccccc3c(NCCc3cccc[n+]3[O-])c12
className: inactive
--
recordSmiles: Cc1ccc(S(=O)(=O)N(C)c2ccc(Cl)cc2C2=NCCc3ccccc32)cc1
className: inactive
--
recordSmiles: Cc1ccc(I)cc1N=C=S
className: inactive
--
recordSmiles: Cc1ccc(S(=O)(=O)N/N=C/C2(c3ccccc3)c3ccccc3-c3ccccc32)cc1
className: active
--
recordSmiles: Clc1cc(Cc2ccc(N=C/C=C/c3ccccc3)c(Cl)c2)ccc1N=C/C=C\c1ccccc1
className: inactive

Origin of the recorded values: PubChem BioAssay (NCI)
